Experiment: blockers of an Epstein-Barr virus protein-peptide interaction – biochemical, fluorescence polarization, dose response (AID 1419)
Details: cell-free protein-peptide binding, 2 h
The source made the active and inactive calls. How the calls were made is not given here.
Respond with a class label; see 1 (active), 0 (inactive)

compound: N#CC1=C(N)N2C(=C(C#N)C1c1ccccc1)Sc1ccccc12 (stereo not given)
class assignment: 0
--
compound: CCC(=O)Nc1nc2n(n1)C(c1ccc(OC)cc1)C=C(c1ccccc1)N2 (stereo not given)
class assignment: 1
--
compound: CN(C)CCCN1C(=O)c2cccc3c([N+](=O)[O-])ccc(c23)C1=O
class assignment: 1
--
compound: c1ccc(-c2cn3nc(-c4ccccc4)c(-c4ccccc4)nc3n2)cc1
class assignment: 1
--
compound: COc1ccc(-c2c(C#N)c(N)nc3sc(C(=O)c4ccccc4)c(N)c23)cc1
class assignment: 1
--
compound: COC(CNC(=O)c1ccc2c3c(onc13)-c1ccccc1C2=O)OC
class assignment: 1
--
compound: CC(=O)[C@@H]1[C@@H]2C(=O)N(C3CCCCC3)C(=O)[C@@H]2C2c3ccccc3C=CN21 (stereo not given in full)
class assignment: 0
--
compound: CC1=CC(=C(C#N)c2nc3ccccc3s2)C=C(C)N1c1ccc(F)cc1
class assignment: 1
--
compound: COc1ccc(C2C=C(c3ccc(Br)s3)Nc3ncnn32)cc1OC (stereo not given)
class assignment: 1

Please find the next compound below.
Exercise: Dear all, I need the recorded test outcome for Cc1ccc(/C=C2\Sc3ccccc3C2=O)s1 , thank you.
Key: 0
